experiment: Antiviral activity against HIV-1 3B infected in human MT2 cells assessed as reduction in viral infection pretreated for 30 mins before viral infection and measured after 4 days by ELISA based multi cycle infection assay; type: functional, cell-based; settings: Human immunodeficiency virus 1, M:B_HXB2R
pIC50: −log10 of the molar value.
Given measured pIC50, output t if it is greater than or equal to 6 and f if not.

Reported pIC50 reaches at least 6 for "NC[C@H](NC(=O)c1ccc(-c2ccc(C(F)(F)F)cc2)[nH]1)c1nc(CO)cs1" ?
t

====

tested on: MT2; experiment: Cytotoxicity against human MT2 cells assessed as reduction in cell viability incubated for 4 days by XTT assay; format: cell-based; conditions: mt2, 96 h, time 4 day
value kind: CC50
Just so you know, I need the unit written after the number.

NC[C@H](NC(=O)c1ccc(-c2ccc(C(F)(F)F)c(F)c2)[nH]1)c1nc(CO)c(CO)s1 ... 92.3 µM

For the next question, use this compound.
Requested read-out: CC50. Entry: "NC[C@@H](NC(=O)c1ccc(-c2ccc(C(F)(F)F)c(F)c2)[nH]1)c1nc(CO)c(CO)s1"
72.4 µM

====

test system: Human immunodeficiency virus 1; assay: Antiviral activity against pseudovirus HIV-1 HXB-2 harboring Env L116P mutant infected in human U87.CD4.CXCR4 cells assessed as reduction in viral infection pretreated for 30 mins before viral infection and measured after 3 days by luciferase based assay; format: functional, cell-based, M:B_HXB2R
value kind: IC50

// query IC50 value for entry "COc1cnc(-n2cnc(C)n2)c2[nH]cc(C(=O)C(=O)N3CCN(C(=O)c4ccccc4)CC3)c12"
> 1 µM

====

assay: Solubility in 5% DMSO at pH 7.4 at 500 uM incubated for 90 mins in shaker by spectrophotometry; assay type: physicochemical
value kind: solubility kinetic at […], 500 µM (µM)
Report the value in µM with no unit label.

COc1cnc(-n2cnc(C)n2)c2[nH]cc(C(=O)C(=O)N3CCN(C(=O)c4ccccc4)CC3)c12 ... 100
NC[C@H](NC(=O)c1ccc(-c2cc(F)c(Cl)c(F)c2)[nH]1)c1nc(CO)cs1 ... 500

Please find the next molecule below.
Find the recorded solubility kinetic at […], 500 µM belonging to "NC[C@H](NC(=O)c1ccc(-c2ccc(C(F)(F)F)c(F)c2)[nH]1)c1nc(CO)cs1" and report it.
100

====

experiment: Antiviral activity against HIV-1 3B infected in human MT2 cells assessed as reduction in viral infection pretreated for 30 mins before viral infection and measured after 4 days by ELISA based multi cycle infection assay; type: functional, cell-based; conditions: Human immunodeficiency virus 1, M:B_HXB2R
Catalogue of pIC50 readings, one per entry.
pIC50 is defined as minus the log10 of a concentration measured in mol/L.

Example entries begin here.
Cc1c(F)cc(-c2ccc(C(=O)N[C@H](CN)c3ncc(CO)s3)[nH]2)cc1F ... 6.70
CC(C)(O)c1csc([C@H](CN)NC(=O)c2ccc(-c3cc(F)c(Cl)c(F)c3)[nH]2)n1 ... 6.60
NC[C@@H](NC(=O)c1ccc(-c2ccc(C(F)(F)F)c(F)c2)[nH]1)c1ncc(CO)s1 ... 6.62
NC[C@@H](NC(=O)c1ccc(-c2ccc(C(F)(F)F)cc2)[nH]1)c1nc(CO)cs1 ... 5.76

Please give the measured pIC50 for this molecule: "NC[C@@H](NC(=O)c1ccc(-c2ccc(C(F)(F)F)c(F)c2)[nH]1)c1nc(CO)c(CO)s1"
5.70

====

test: Cytotoxicity against dog Cf2Th-CCR5 cells assessed as reduction in cell viability incubated for 48 hrs by XTT assay; assay type: cell-based, Canis lupus familiaris; details: cf2th-ccr5, 48 h
value kind: CC50 (µM)
Dear colleague, please return just the value in µM, with no unit written.

Consider the compound "NC[C@@H](NC(=O)c1ccc(-c2ccc(C(F)(F)F)cc2)[nH]1)c1ncc(CO)s1" and give its measured CC50.
37.7

====

Catalogue of compounds with associated CC50
tested on: TZM; assay: Cytotoxicity against human TZM-bl cells assessed as reduction in cell viability incubated for 3 days by XTT assay; type: cell-based; conditions: tzm, 72 h, time 3 day

COC(C)(C)c1csc([C@@H](CN)NC(=O)c2ccc(-c3cc(F)c(Cl)c(F)c3)[nH]2)n1 ... 39.6 µM

For the compound "NC[C@@H](NC(=O)c1ccc(-c2ccc(C(F)(F)F)c(F)c2)[nH]1)c1nc(CO)c(CO)s1" , what CC50 is on record?
> 65.4 µM

Query: CC50; subject: "NC[C@@H](NC(=O)c1ccc(-c2ccc(C(F)(F)F)cc2)[nH]1)c1nc(CO)cs1"
27.6 µM

# CC50 lookup, item "NC[C@@H](NC(=O)c1ccc(-c2ccc(C(F)(F)F)c(F)c2)[nH]1)c1nc(CO)cs1"
17.3 µM

====

CC50 at 72 h by entry:
experiment: Cytotoxicity against human TZM-bl cells assessed as reduction in cell viability incubated for 3 days by XTT assay; type: cell-based; conditions: TZM-bl cells, time 3 day
Kindly format the answer as number then unit.

Solved cases (5 shown):
NC[C@@H](NC(=O)c1ccc(-c2cc(F)c(C(F)(F)F)c(F)c2)[nH]1)c1ncc(CO)s1 ... 23.5 µM
NC[C@H](NC(=O)c1ccc(-c2cc(F)c(Cl)c(F)c2)[nH]1)c1nc(CO)cs1 ... 42.1 µM
NC[C@@H](NC(=O)c1ccc(-c2cc(F)c(Cl)c(F)c2)[nH]1)c1ncc(CO)s1 ... 20.6 µM
NC[C@H](NC(=O)c1ccc(-c2cc(F)c(Cl)c(F)c2)[nH]1)c1ncc(CO)o1 ... 27.7 µM
NC[C@@H](NC(=O)c1ccc(-c2cc(F)c(Cl)c(F)c2)[nH]1)c1ncc(CO)o1 ... 30.9 µM

Quick one: CC50 at 72 h of "NC[C@H](NC(=O)c1ccc(-c2cc(F)c(Cl)c(F)c2)[nH]1)c1ncc(CO)s1" ?
39.5 µM

I'd like to know its CC50 at 72 h. The compound in question is "NC[C@H](NC(=O)c1ccc(-c2cc(F)c(C(F)(F)F)c(F)c2)[nH]1)c1ncc(CO)s1"
23 µM

Consider the compound shown here: "NC[C@H](NC(=O)c1ccc(-c2ccc(C(F)(F)F)c(F)c2)[nH]1)c1nc(CO)cs1" What is its recorded CC50 at 72 h?
21.9 µM

====

// CC50 at 96 h lookup, one value per entry
test: Cytotoxicity against human MT2 cells assessed as reduction in cell viability incubated for 4 days by XTT assay; format: cell-based; settings: MT2 cells, time 4 day
Hi! Could you send only the number? It should be in µM, unit omitted.

Examples with answers:
NC[C@H](NC(=O)c1ccc(-c2cc(F)c(C(F)(F)F)c(F)c2)[nH]1)c1ncc(CO)s1 ... 14.3
NC[C@H](NC(=O)c1ccc(-c2ccc(C(F)(F)F)c(F)c2)[nH]1)c1nc(CO)cs1 ... 22.1

Need CC50 at 96 h, item "NC[C@@H](NC(=O)c1ccc(-c2cc(F)c(Cl)c(F)c2)[nH]1)c1ncc(CO)o1"
44.7

What value of CC50 at 96 h has been reported for the following compound? "NC[C@@H](NC(=O)c1ccc(-c2cc(F)c(C(F)(F)F)c(F)c2)[nH]1)c1ncc(CO)s1"
15.5

Report CC50 at 96 h for "NC[C@@H](NC(=O)c1ccc(-c2cc(F)c(Cl)c(F)c2)[nH]1)c1ncc(CO)s1" please.
17.4

====

assay: Cytotoxicity against human MT2 cells assessed as reduction in cell viability incubated for 4 days by XTT assay; type: cell-based; details: MT2 cells, time 4 day
In this section we review reported CC50 at 96 h values for a set of molecules.
Numeric only. Scale: µM

Below: 2 molecules and their reported CC50 at 96 h.
NC[C@H](NC(=O)c1ccc(-c2cc(F)c(Cl)c(F)c2)[nH]1)c1nc(CO)cs1 ... 32.6
NC[C@H](NC(=O)c1ccc(-c2cc(F)c(Cl)c(F)c2)[nH]1)c1ncc(CO)s1 ... 37

Turning now to a further molecule:
Consider the molecule shown here: "NC[C@H](NC(=O)c1ccc(-c2cc(F)c(Cl)c(F)c2)[nH]1)c1ncc(CO)o1" What is its recorded CC50 at 96 h?
26.5

====

tested on: Human immunodeficiency virus 1; assay: Antiviral activity against pseudovirus HIV-1 HXB-2 harboring Env S375W mutant infected in human U87.CD4.CXCR4 cells assessed as reduction in viral infection pretreated for 30 mins before viral infection and measured after 3 days by luciferase based assay; assay type: functional, cell-based, M:B_HXB2R
value kind: IC50

Enter reported IC50 observed with Human immunodeficiency virus 1 for "COc1cnc(-n2cnc(C)n2)c2[nH]cc(C(=O)C(=O)N3CCN(C(=O)c4ccccc4)CC3)c12"
> 1000 nM

====

system: Human immunodeficiency virus 1; test: Antiviral activity against clinical isolate HIV-1 93BR019 infected in human PBMC cells assessed as reduction in viral transmission to TZM-bl cells pretreated for 1 hr before viral transmission and further incubated for 48 hrs by luciferase based assay; format: functional, cell-based; details: Human immunodeficiency virus 1, 93BR019, PBMC
value kind: pIC50
Please keep in mind that pIC50 is minus log10 of the molar concentration; only the number is needed.

# query: pIC50 of entry "COc1cnc(-n2cnc(C)n2)c2[nH]cc(C(=O)C(=O)N3CCN(C(=O)c4ccccc4)CC3)c12"
7.00
